- MEASUREMENT NOTES: physchem
- STUDY CONDITIONS: 60 °C, organic solvent or mixture

COMPOUND | SCALE UNIT | solubility
Cc1nc2n(c(=O)c1CCN1CCC(c3noc4cc(F)ccc34)CC1)CCCC2O (stereo not shown) | mg/mL | 233
